# TESTED_TARGET: ROCK2 (UniProt O75116)
# Sequence (O75116 whole entry, looked up): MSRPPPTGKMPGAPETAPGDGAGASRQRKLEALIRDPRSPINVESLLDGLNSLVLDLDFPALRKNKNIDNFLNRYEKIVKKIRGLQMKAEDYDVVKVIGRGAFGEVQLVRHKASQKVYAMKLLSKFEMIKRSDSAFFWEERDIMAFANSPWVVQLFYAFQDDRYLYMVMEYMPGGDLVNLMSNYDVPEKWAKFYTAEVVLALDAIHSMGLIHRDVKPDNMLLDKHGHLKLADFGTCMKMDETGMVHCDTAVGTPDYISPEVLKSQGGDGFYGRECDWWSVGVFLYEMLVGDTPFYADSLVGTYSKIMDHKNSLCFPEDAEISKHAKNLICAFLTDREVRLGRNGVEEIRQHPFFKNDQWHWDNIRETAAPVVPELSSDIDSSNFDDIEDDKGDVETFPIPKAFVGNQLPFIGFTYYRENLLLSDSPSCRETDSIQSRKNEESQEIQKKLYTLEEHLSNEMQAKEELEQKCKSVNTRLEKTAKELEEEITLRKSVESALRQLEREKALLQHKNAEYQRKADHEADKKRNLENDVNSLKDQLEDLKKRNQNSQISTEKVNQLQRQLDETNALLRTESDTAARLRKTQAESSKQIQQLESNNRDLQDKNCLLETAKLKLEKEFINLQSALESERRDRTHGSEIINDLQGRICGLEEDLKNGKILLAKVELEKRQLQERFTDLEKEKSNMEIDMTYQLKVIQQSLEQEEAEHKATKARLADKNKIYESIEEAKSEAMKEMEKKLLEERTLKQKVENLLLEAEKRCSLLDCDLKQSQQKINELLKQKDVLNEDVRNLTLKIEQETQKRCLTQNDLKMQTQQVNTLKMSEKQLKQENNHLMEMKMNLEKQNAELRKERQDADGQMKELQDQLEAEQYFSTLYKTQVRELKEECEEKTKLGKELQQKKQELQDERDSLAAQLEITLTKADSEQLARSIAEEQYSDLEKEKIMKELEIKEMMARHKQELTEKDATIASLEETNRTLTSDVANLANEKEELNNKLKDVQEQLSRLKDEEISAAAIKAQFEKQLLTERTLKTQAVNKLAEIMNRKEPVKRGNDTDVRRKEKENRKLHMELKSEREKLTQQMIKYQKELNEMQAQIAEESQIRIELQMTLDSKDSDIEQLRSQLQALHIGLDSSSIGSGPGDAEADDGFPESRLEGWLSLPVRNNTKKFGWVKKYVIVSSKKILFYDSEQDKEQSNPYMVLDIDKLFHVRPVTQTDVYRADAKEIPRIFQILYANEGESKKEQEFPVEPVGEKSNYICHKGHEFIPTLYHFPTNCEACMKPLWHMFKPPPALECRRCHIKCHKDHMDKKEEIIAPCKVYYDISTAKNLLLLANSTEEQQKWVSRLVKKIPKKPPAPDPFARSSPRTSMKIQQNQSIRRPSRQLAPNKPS
pKi: −log10 of the molar value.
MEASURED_METRIC: pKi

>  <COMPOUND>
CNc1c(-c2ccc(C(C)(C)N)cc2)ccc2[nH]ncc12

>  <VALUE_REPORTED>
7.82

$$$$
>  <COMPOUND>
CC(O)c1c(-c2ccc(C(C)(C)N)cc2)ccc2[nH]ncc12 (stereo not given)

>  <VALUE_REPORTED>
6.53

$$$$
>  <COMPOUND>
COc1c(-c2ccc(C(C)(C)N)cn2)ccc2[nH]ncc12

>  <VALUE_REPORTED>
7.57

$$$$

1: CCC(N)(CC)c1ccc(-c2ccc3[nH]ncc3c2OC2CC2)nc1
2: CCN(CC)c1c(-c2ccc(C(C)(C)N)cc2)ccc2[nH]ncc12
3: CC(C)(N)c1ccc(-c2ccc3[nH]ncc3c2O)nc1
q: # rank by pKi, ascending (min first) Please, when replying, give the labels in the order that was requested.
a: 2, 3, 1
(2: 6.21, 3: 7.26, 1: 7.47)

a: CC(C)(N)c1ccc(-c2ccc3[nH]ncc3c2OC2CC2)nc1
b: CC(C)(N)c1cnc(-c2ccc3[nH]ncc3c2)c(Cl)c1
q: Which is greater in pKi, the first item a or the second item b ? # reply format: chosen label
a: a

P: CC(C)(N)c1ccc(-c2ccc3[nH]ncc3c2-c2cn[nH]c2)cc1
Q: CCOc1c(-c2ccc(C(N)(CC)CC)cn2)ccc2[nH]ncc12
q: Pick one: P or Q . Which one has the lower reported pKi? Reply briefly: the label of your chosen item.
a: Q

###

Here's a batch of compounds along with measured pKi for ROCK2 (UniProt O75116).
pKi: −log10 of the molar value.
MEASURED_METRIC: pKi

Here are 8 compounds together with their reported answers.
>  <SMILES_REPR>
NCc1ccc(-c2ccc3[nH]ncc3c2[N+](=O)[O-])cc1

>  <TESTED_TARGET>
ROCK2 (UniProt O75116)

>  <VALUE_REPORTED>
7.26

$$$$
>  <SMILES_REPR>
CCc1c(-c2ccc(C(C)(C)N)cn2)ccc2[nH]ncc12

>  <TESTED_TARGET>
ROCK2 (UniProt O75116)

>  <VALUE_REPORTED>
7.82

$$$$
>  <SMILES_REPR>
CC(C)(N)c1ccc(-c2ccc3[nH]ncc3c2[N+](=O)[O-])nc1

>  <TESTED_TARGET>
ROCK2 (UniProt O75116)

>  <VALUE_REPORTED>
6.70

$$$$
>  <SMILES_REPR>
CC(C)(N)c1ccc(-c2ccc3[nH]ncc3c2NCc2ccccc2)cc1

>  <TESTED_TARGET>
ROCK2 (UniProt O75116)

>  <VALUE_REPORTED>
6.59

$$$$
>  <SMILES_REPR>
CC(C)(N)c1ccc(-c2ccc3[nH]ncc3c2OCC2CC2)nc1

>  <TESTED_TARGET>
ROCK2 (UniProt O75116)

>  <VALUE_REPORTED>
6.84

$$$$
>  <SMILES_REPR>
C=Cc1c(-c2ccc(C(C)(C)N)cn2)ccc2[nH]ncc12

>  <TESTED_TARGET>
ROCK2 (UniProt O75116)

>  <VALUE_REPORTED>
7.77

$$$$
>  <SMILES_REPR>
CN(C)c1c(-c2ccc(CN)cc2)ccc2[nH]ncc12

>  <TESTED_TARGET>
ROCK2 (UniProt O75116)

>  <VALUE_REPORTED>
7.54

$$$$
>  <SMILES_REPR>
CC(C)(N)c1ccc(-c2ccc3[nH]ncc3c2O)cc1

>  <TESTED_TARGET>
ROCK2 (UniProt O75116)

>  <VALUE_REPORTED>
7.54

$$$$

1: CC(C)(N)c1ccc(-c2ccc3[nH]ncc3c2-c2cccnc2)cc1
2: CC(C)(N)c1ccc(-c2ccc3[nH]ncc3c2CCO)cc1
q: Kindly identify which of 1 and 2 has the larger recorded pKi value. When you have decided, please share the label of that item.
a: 2
(2: 7.33, 1: 6.90)

###

# TESTED_TARGET: UniProt O75116
pKi: −log10 of the molar value.
MEASURED_METRIC: pKi

>  <MOLECULE>
CCC(N)(CC)c1ccc(-c2ccc3[nH]ncc3c2N)cc1

>  <MEASURED_METRIC>
pKi

>  <VALUE_REPORTED>
7.42

$$$$

a: CC(C)(N)c1ccc(-c2ccc3[nH]nc(C#N)c3c2)cc1
b: CCC(N)(CC)c1ccc(-c2ccc3[nH]ncc3c2N(C)C)cc1
c: CC(C)(N)c1ccc(-c2ccc3[nH]ncc3c2-c2cn[nH]c2)nc1
d: CC(C)(N)c1ccc(-c2ccc3[nH]ncc3c2-c2cnco2)cc1
e: COc1c(-c2ccc(C(C)(C)N)cc2)ccc2[nH]ncc12
q: Please list the entries, largest pKi first. I'd appreciate it if you listed the labels in the requested order.
a: d, e, b, c, a
(d: 8.59, e: 7.89, b: 7.64, c: 7.25, a: 6.99)

I: CC(N)c1ccc(-c2ccc3[nH]ncc3c2N(C)C)cc1 (stereo unspecified)
II: CC(C)(N)c1ccc(-c2ccc3[nH]nc(C(N)=O)c3c2)cc1
q: // task: argmin of pKi over [ I , II ] Lab note: record the label of whichever item you select.
a: II

###

List of pKi tested on ROCK2 (UniProt O75116).
pKi: −log10 of the molar value.
MEASURED_METRIC: pKi

>  <SMILES_REPR>
C=CCOc1c(-c2ccc(C(C)(C)N)cc2)ccc2[nH]ncc12

>  <VALUE_REPORTED>
7.64

$$$$
>  <SMILES_REPR>
COc1c(-c2ccc(C3(N)CCCC3)cn2)ccc2[nH]ncc12

>  <VALUE_REPORTED>
7.57

$$$$
>  <SMILES_REPR>
CC(C)(N)c1ccc(-c2ccc3[nH]ncc3c2)nc1

>  <VALUE_REPORTED>
7.70

$$$$
